B1: MTMR15 (parent)
chain: YVKAKKSIDKDEEFAGSSPQSSKS

Variants of: B1
assay_info: protein stability index of a GFP-peptide fusion (GPS, HEK-293T) (PSI 1-6); higher = more stable;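 note: lentivirally expressed fusions sorted by FACS into six bins by GFP to DsRed ratio, PSI derived from sequencing read proportions per bin multiplied by bin number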
conditions_used: c terminus: a fixed tail appended
Some variants, each annotated with its measured protein stability index.
No unit in the answer, only the number.

Check out these entries, answers already filled in.
variant_key=I8Q measured_number=3.3
variant_key=S7P measured_number=3.41
variant_key=A4S measured_number=2.45

**Q:** For the variant "D11C" , what protein stability index is on record?
**A:** 2.71

**Q:** For the variant "D11T" , what protein stability index is on record?
**A:** 2.5

**Q:** For the variant "E13F" , what protein stability index is on record?
**A:** 2.09

**Q:** For the variant "E13S" , what protein stability index is on record?
**A:** 2.78

**Q:** For the variant "S17D" , what protein stability index is on record?
**A:** 3.03
